biological target: Cathepsin B from bovine spleen (bovine, UniProt P07688 80-332); experiment: cell-based or functional assay
// Condition not met strictly below 100 in Cathepsin B inhibition test, 2 mM peptide; Condition met otherwise

As a guide, the following entries are already answered.
| Binder | Category |
| --- | --- |
| Ac-HSSKLH-OH [Ac-HSSKLH-OH] | Condition met |
| Ac-SKLH-OH (also: MGO-modified, site not given here) [MGO-modified Ac-SKLH-OH] | Condition not met |

Is the recorded value of Cathepsin B inhibition test, 2 mM peptide equal to or greater than 100 for this binder? Ac-SSKS-OH [Ac-SSKS-OH]
Condition met

Test whether the binder Ac-SKLH-OH [Ac-SKLH-OH] records Cathepsin B inhibition test, 2 mM peptide of 100 or higher.
Condition met

Please check the record Ac-SSKS-OH (also: MGO-modified, site not given here) [MGO-modified Ac-SSKS-OH] and state if its Cathepsin B inhibition test, 2 mM peptide is at or above 100.
Condition met

Please tell me: is the binder Ac-HSSK-OH [Ac-HSSK-OH] at or over 100 in terms of Cathepsin B inhibition test, 2 mM peptide?
Condition met
